# subject_of_test: recombinant human SAE enzyme (Homo sapiens (Human))
# Sequence (Q9UBT2 whole entry): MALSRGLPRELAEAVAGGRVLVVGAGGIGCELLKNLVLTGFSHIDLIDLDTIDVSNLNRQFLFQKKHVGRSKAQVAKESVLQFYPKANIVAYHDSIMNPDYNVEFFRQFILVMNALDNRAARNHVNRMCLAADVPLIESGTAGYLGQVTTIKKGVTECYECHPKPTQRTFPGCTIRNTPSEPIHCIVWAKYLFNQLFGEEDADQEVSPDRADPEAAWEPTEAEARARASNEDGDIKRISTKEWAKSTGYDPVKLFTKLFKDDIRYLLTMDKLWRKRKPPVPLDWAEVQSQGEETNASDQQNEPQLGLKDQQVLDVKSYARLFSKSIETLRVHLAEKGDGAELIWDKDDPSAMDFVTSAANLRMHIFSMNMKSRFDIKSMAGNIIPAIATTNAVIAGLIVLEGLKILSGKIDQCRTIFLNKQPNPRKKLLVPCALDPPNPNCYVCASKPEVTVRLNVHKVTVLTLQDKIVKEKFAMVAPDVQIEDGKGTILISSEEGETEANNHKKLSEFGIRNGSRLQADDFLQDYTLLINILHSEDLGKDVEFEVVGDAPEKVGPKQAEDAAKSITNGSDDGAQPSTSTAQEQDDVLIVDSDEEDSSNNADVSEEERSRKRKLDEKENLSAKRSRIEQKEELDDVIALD
# Sequence (Q9UBE0 whole entry partner): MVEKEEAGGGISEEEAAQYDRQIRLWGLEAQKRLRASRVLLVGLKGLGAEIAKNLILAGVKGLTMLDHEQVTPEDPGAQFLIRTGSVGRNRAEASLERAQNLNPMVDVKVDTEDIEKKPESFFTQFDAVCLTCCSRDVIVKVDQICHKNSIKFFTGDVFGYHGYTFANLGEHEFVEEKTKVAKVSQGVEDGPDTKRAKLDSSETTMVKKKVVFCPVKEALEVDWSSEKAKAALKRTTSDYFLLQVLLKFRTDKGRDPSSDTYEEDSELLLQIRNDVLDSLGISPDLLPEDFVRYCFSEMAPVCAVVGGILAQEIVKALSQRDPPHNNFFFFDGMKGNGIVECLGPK
# test_name: SAE HTRF enzyme assay
# Type: biochemical
# test_conditions: Concentration 0.111 μM
assay_readout: Percent Inhibition

>  <compound>
CO[C@H](c1cccc(Cl)c1)c1cc(C(=O)c2cncnc2N[C@@H]2C[C@H](COS(N)(=O)=O)[C@@H](O)C2)sc1Cl (single isomer, unassigned) [I-90a]

>  <subject_of_test>
recombinant human SAE enzyme (Homo sapiens (Human))

>  <test_value>
98

$$$$
>  <compound>
NS(=O)(=O)OC[C@H]1C[C@@H](Nc2ncncc2C(=O)c2cc([C@@H]3NCCc4ccc(Cl)nc43)c(Cl)s2)C[C@@H]1O (single isomer, unassigned) [I-253b]

>  <subject_of_test>
recombinant human SAE enzyme (Homo sapiens (Human))

>  <test_value>
83

$$$$
>  <compound>
NS(=O)(=O)OC[C@H]1C[C@@H](Nc2ncncc2C(=O)c2cc([C@H](O)c3cc(Cl)ccc3Cl)c(Cl)s2)C[C@@H]1O (mixture of isomers)

>  <subject_of_test>
recombinant human SAE enzyme (Homo sapiens (Human))

>  <test_value>
97

$$$$
>  <compound>
NS(=O)(=O)OC[C@H]1C[C@@H](Nc2ncncc2C(=O)c2cc([C@@H]3OCCc4cccnc43)c(Cl)s2)C[C@@H]1O (single isomer, unassigned) [I-266b]

>  <subject_of_test>
recombinant human SAE enzyme (Homo sapiens (Human))

>  <test_value>
100

$$$$
>  <compound>
NS(=O)(=O)OC[C@H]1C[C@@H](Nc2ncncc2C(=O)c2cc([C@@]3(C4CCCCC4)CCCO3)cs2)C[C@@H]1O (mixture of isomers)

>  <subject_of_test>
recombinant human SAE enzyme (Homo sapiens (Human))

>  <test_value>
93

$$$$
>  <compound>
COCc1sc(C(=O)c2cncnc2N[C@@H]2C[C@H](COS(N)(=O)=O)[C@@H](O)C2)cc1C(O)c1cccc(Cl)c1 (single isomer, unassigned) [I-7b]

>  <subject_of_test>
recombinant human SAE enzyme (Homo sapiens (Human))

>  <test_value>
98

$$$$
>  <compound>
C[C@](O)(c1csc(C(=O)c2cncnc2N[C@@H]2C[C@H](COS(N)(=O)=O)[C@@H](O)[C@H]2O)c1)c1cccc(Br)n1 (single isomer, unassigned) [I-1b]

>  <subject_of_test>
recombinant human SAE enzyme (Homo sapiens (Human))

>  <test_value>
100

$$$$
>  <compound>
Cc1sc(C(=O)c2cncnc2N[C@@H]2C[C@H](COS(N)(=O)=O)[C@@H](O)[C@@H]2F)cc1[C@H]1OCCc2ccc(Cl)cc21 (single isomer, unassigned) [I-264a]

>  <subject_of_test>
recombinant human SAE enzyme (Homo sapiens (Human))

>  <test_value>
33

$$$$
>  <compound>
C#Cc1ccc2c(c1)[C@H](c1cc(C(=O)c3cncnc3N[C@@H]3C[C@H](COS(N)(=O)=O)[C@@H](O)C3)sc1C)OCC2 (single isomer, unassigned) [I-252b]

>  <subject_of_test>
recombinant human SAE enzyme (Homo sapiens (Human))

>  <test_value>
98

$$$$
>  <compound>
Cc1sc(C(=O)c2cncnc2N[C@@H]2C[C@H](COS(N)(=O)=O)[C@@H](O)C2)cc1[C@@H]1OCCc2ccc(C3CC3)cc21 (single isomer, unassigned) [I-277b]

>  <subject_of_test>
recombinant human SAE enzyme (Homo sapiens (Human))

>  <test_value>
81

$$$$
>  <compound>
NS(=O)(=O)OC[C@H]1C[C@@H](Nc2ncncc2C(=O)c2cc([C@@H]3NCCc4ccc(Cl)cc43)c(Cl)s2)[C@H](O)[C@@H]1O (single isomer, unassigned) [I-249a]

>  <subject_of_test>
recombinant human SAE enzyme (Homo sapiens (Human))

>  <test_value>
100

$$$$
